Tested on: SU.86.86
Assay: cells
Design: 5-day MTT proliferation assay, absorbance 570 nm, per cent viability of untreated cells, IC50 from XLfit
Conditions: Homo sapiens, SU.86.86, 120 h; 5-day MTT proliferation; read-out: PC14586 MTT IC50
measuredParameter: IC50 (µM)
The answer is to be given in µM; state only the numeric part.

(Q) Entry under review: CNC(=O)c1ccc(NCC#Cc2cc3c(N[C@@H]4CCN(C)C[C@@H]4F)cccc3n2CC(F)(F)F)c(OC)c1 [PC14586, rezatapopt] . Reported IC50?
(A) 16.8

----------
Test system: KON
Assay: cells
Set-up: 5-day MTT proliferation assay, absorbance 570 nm, per cent viability of untreated cells, IC50 from XLfit
Conditions: 120 h; 5-day MTT proliferation; read-out: PC14586 MTT IC50
measuredParameter: IC50 (µM)
The answer is to be given in µM; state only the numeric part.

(Q) Entry under review: CNC(=O)c1ccc(NCC#Cc2cc3c(N[C@@H]4CCN(C)C[C@@H]4F)cccc3n2CC(F)(F)F)c(OC)c1 . Reported IC50?
(A) 1.05

----------
Tested on: MFE-296#
Assay: cells
Parameters: 5-day MTT proliferation assay, absorbance 570 nm, per cent viability of untreated cells, IC50 from XLfit
Settings: Homo sapiens, MFE-296, 120 h; 5-day MTT proliferation; read-out: PC14586 MTT IC50
measuredParameter: pIC50
Please note pIC50 is a logarithmic value: minus log10 of concentration in mol/L. Answer with that number alone.

(Q) Lab request: please report pIC50 under test system MFE-296# for CNC(=O)c1ccc(NCC#Cc2cc3c(N[C@@H]4CCN(C)C[C@@H]4F)cccc3n2CC(F)(F)F)c(OC)c1
(A) 6.30

----------
System: SNU-NCC-19
Assay: cells
Design: 5-day MTT proliferation assay, absorbance 570 nm, per cent viability of untreated cells, IC50 from XLfit
Conditions: 120 h; 5-day MTT proliferation; read-out: PC14586 MTT IC50
measuredParameter: IC50 (nM)
The answer is to be given in nM; state only the numeric part.

(Q) Entry under review: CNC(=O)c1ccc(NCC#Cc2cc3c(N[C@@H]4CCN(C)C[C@@H]4F)cccc3n2CC(F)(F)F)c(OC)c1 [PC14586, rezatapopt] . Reported IC50?
(A) 230

----------
Tested on: EFE-184
Test: cells
Design: 5-day MTT proliferation assay, absorbance 570 nm, per cent viability of untreated cells, IC50 from XLfit
Settings: Homo sapiens, EFE-184, 120 h; 5-day MTT proliferation; read-out: PC14586 MTT IC50
measuredParameter: IC50 (µM)
The answer is to be given in µM; state only the numeric part.

(Q) Entry under review: CNC(=O)c1ccc(NCC#Cc2cc3c(N[C@@H]4CCN(C)C[C@@H]4F)cccc3n2CC(F)(F)F)c(OC)c1 . Reported IC50?
(A) 12.5

Source of measurements: paper PMC12130801
